Molecular target: human factor Xa (Homo sapiens, UniProt P00742)
Construct: 25 μl human factor Xa (Enzyme Research Laboratories, Inc; South Bend, Ind.); purchased Enzyme Research Laboratories, Inc; South Bend, Ind
Sequence (P00742 235-488 limits assumed): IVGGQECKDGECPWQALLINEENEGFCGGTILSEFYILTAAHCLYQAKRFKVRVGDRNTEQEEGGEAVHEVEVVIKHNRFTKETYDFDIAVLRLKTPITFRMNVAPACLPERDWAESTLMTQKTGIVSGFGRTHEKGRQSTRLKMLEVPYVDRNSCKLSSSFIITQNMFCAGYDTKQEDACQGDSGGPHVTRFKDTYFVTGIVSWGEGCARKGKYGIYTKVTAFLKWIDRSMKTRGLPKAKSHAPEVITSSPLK
Sequence (P00742 41-179 partner limits assumed): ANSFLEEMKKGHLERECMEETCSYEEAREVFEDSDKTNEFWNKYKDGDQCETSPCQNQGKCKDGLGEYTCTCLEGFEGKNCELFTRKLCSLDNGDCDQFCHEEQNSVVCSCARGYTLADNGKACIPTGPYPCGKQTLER
Assay: Factor Xa chromogenic assay (substrate S-2765);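 also: purified enzyme, compound preincubated with the enzyme for 10 min before substrate addition starts the reaction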
Type: biochemical
Settings: read-out: Ki(FXa)
Parameter measured: pKi
Scale: pKi equals -log10([C]), with [C] in mol/L.

Give recorded pKi. COc1cc(C(=O)NCC2CCN(c3ccncc3)CC2)cc(OCCc2ccc(Cl)cc2)c1Br [Example 224] 7.70

Quick one: give measured pKi for COc1ccc(C(=O)NCC2CCN(c3ccncc3)CC2)cc1OCCc1ccc(Cl)nc1 [Example 145] 6.23

Tell us which pKi value is on record for COc1ccc(C(=O)NCC2CCN(c3ccnc(C)c3)CC2)cc1OCCc1ccc(Cl)cc1 [Example 171] 6.89

Answer with the recorded pKi for the compound listed here: COc1ccc(C(=O)NCC2CCN(c3ccncc3)CC2)cc1Oc1nc2ccc(Cl)cc2s1 [Example 94] 6.12

Provide only the value of recorded pKi for O=C(NCC1CCN(c2cc[n+](O)cc2)CC1)c1ccc(Cl)c(OCCc2ccc(Cl)cc2Cl)c1 [Example 230] 6.19

Output pKi of COc1ccc(C(=O)N2CCN(CCCN(C)C)CC2)cc1OCCc1ccc(Cl)cc1Cl [Example 195] 5.17

Return the recorded pKi value; entry: O=C(c1cc(OCCc2ccc(Cl)cc2Cl)c2c(c1)OCO2)N1CCN(Cc2ccncc2)CC1 [Example 186] 6.40

Supply pKi value. Item: O=C(c1ccc(Cl)c(OCCc2ccc(Cl)cc2Cl)c1)N1CCN(Cc2cc[n+](O)cc2)CC1 [Example 187] 6.02

Return the recorded pKi value; entry: O=C(Nc1cccc(C(=O)NCC2CCN(c3ccncc3)CC2)c1)Nc1ccc(Cl)cn1 [Example 91] 5.86

# return recorded pKi for entry O=C(NCC1CCN(c2ccncc2)CC1)c1ccc(Cl)c(OCCc2ccc(F)cc2Cl)c1 [Example 207] 7.17
